# Tested on: CCRIS mutagenicity, Ames/micronucleus/aberration tests
# ASSAY_COMMENT: CCRIS mutagenicity studies
# CONDITION_LABEL: Test System: AMES SALMONELLA TYPHIMURIUM; Strain/Indicator: TA100; Metabolic Activation: NONE; Method: PREINCUBATION
Activity calls are given as the source filed them. The rule behind the calls is not given here.
Outcomes: true = active, false = inactive

[[record]]
compound = "O=[N+]([O-])c1ccc(Cl)c(Cl)c1"
assigned_class = "true"

[[record]]
compound = "CC12OOC1(C)c1c(ccc3ccccc13)O2 (stereo unspecified)"
assigned_class = "false"

[[record]]
compound = "O=C(O)/C=C/c1cccc([N+](=O)[O-])c1"
assigned_class = "true"

[[record]]
compound = "O=C1CCc2ccccc2O1"
assigned_class = "false"

[[record]]
compound = "CC(=O)Nc1ccc(S(N)(=O)=O)cc1"
assigned_class = "false"

[[record]]
compound = "COC(=O)C1=C(C)NC(C)=C(C(=O)OC/C=C/c2ccccc2)C1c1cccc([N+](=O)[O-])c1 (stereo unspecified)"
assigned_class = "false"

[[record]]
compound = "Cc1cc(-c2cc(C)c(N)c(C)c2)cc(C)c1N"
assigned_class = "false"

[[record]]
compound = "C(=C/c1ccccc1)/c1ccccc1"
assigned_class = "false"

[[record]]
compound = "CC(=O)Nc1ccc(Oc2ccc(N=O)cc2)cc1"
assigned_class = "true"

[[record]]
compound = "CCc1ccccc1N"
assigned_class = "false"

[[record]]
compound = "CSC(C)(C)C(=O)N[C@@H](CS)C(=O)O"
assigned_class = "false"

[[record]]
compound = "Cc1n[nH]c(=O)[nH]c1=O"
assigned_class = "false"

[[record]]
compound = "CN[C@@H]1[C@@H](O)[C@@H](O[C@@H]2[C@@H](O)[C@H](O[C@H]3O[C@H](CN)[C@@H](O)[C@H](O)[C@H]3O)[C@@H](N)C[C@H]2NC(=O)[C@@H](O)CN)OC[C@]1(C)O"
assigned_class = "false"

[[record]]
compound = "CS(C)(=O)=O"
assigned_class = "false"

[[record]]
compound = "COC(=O)C1=C(C)NC(C)=C(C(=O)OC)C1c1ccccc1[N+](=O)[O-]"
assigned_class = "false"

[[record]]
compound = "CC1CN(N=O)CC(C)O1 (stereo unspecified)"
assigned_class = "false"

